Tested on: Escherichia coli
Assay: Antibacterial activity against Escherichia coli ATCC 25922 after 18 to 24 hrs by standard twofold serial dilution method
Type: functional
measuredQuantity: MIC (µg/mL)
// units = µg/mL; emit number, no label

Sample answers from the record:
{"compound": "NCC1CN(c2c(F)cc3c(=O)c(C(=O)O)cn([C@@H]4C[C@@H]4F)c3c2Cl)C/C1=N/OCc1ccccc1 (stereo not given in full)", "MIC / µg/mL": 0.5}
{"compound": "CO/N=C1/CN(c2nc3c(cc2F)c(=O)c(C(=O)O)cn3[C@@H]2C[C@@H]2F)[C@H]1CN", "MIC / µg/mL": 0.06}
{"compound": "CO/N=C1/CN(c2cc3c(cc2F)c(=O)c(C(=O)O)cn3[C@@H]2C[C@@H]2F)[C@@H]1CN", "MIC / µg/mL": 0.06}
{"compound": "CCO/N=C1/CN(c2nc3c(cc2F)c(=O)c(C(=O)O)cn3[C@@H]2C[C@@H]2F)[C@H]1CN", "MIC / µg/mL": 0.125}

Please report the recorded MIC for NCC1CN(c2cc3c(cc2F)c(=O)c(C(=O)O)cn3[C@@H]2C[C@@H]2F)C/C1=N/OCc1ccccc1 (stereo not given in full) .
0.06
